Source: PubChem BioAssay (NCI)

# experiment-summary: NCI Yeast Anticancer Drug Screen. Data for the mlh1 rad18 strain (AID 175)
# recorded-conditions: S. cerevisiae mlh1 rad18 strain growth inhibition; at 50.0 µM
This is part of a sample that, as a whole, favours compounds with a hit. Of some 79,000 tested, about 15% had one in any assay. Activity calls are given as the source filed them. Rule as the data show it: active = growth inhibition above about 70%; inactive = the rest.
Just give me one of these, please: 1 = active, -1 = inactive

Completed entries (count: 2):
- compound: "CN(CCc1ccccn1)/[N+]([O-])=N/O (tested in a mixture with another compound)"
  label-class: -1
- compound: "Nc1cc2c(cc1[N+](=O)[O-])-c1cccc(F)c1C2"
  label-class: -1

## Input Could you please tell me the result logged for "CCN(CC)CCOc1ccc(/C=C(\C#N)c2ccc(OCCN(CC)CC)cc2)cc1" in this assay?
## Output -1

## Input Look up the recorded call for "CC(C)(C)c1cc(C(=O)O)ccc1C(=O)O" in this test.
## Output -1
